# test_details: Cytotoxicity against human LO2 cells after 48 hrs by MTT assay
# Format: cell-based
# test_settings: L02, 48 h
pIC50: −log10 of the molar value.

compound: COC(=O)[C@H](CC(C)C)NP(=O)(Oc1ccccc1)Oc1cc(O)c2c(=O)cc(-c3ccccc3)oc2c1 (some centres undefined)
pIC50: < 4.00

compound: O=c1cc(-c2ccccc2)oc2cc(O)cc(O)c12 [CHRYSIN]
pIC50: < 4.00

compound: COC(=O)[C@H](Cc1ccccc1)NP(=O)(Oc1ccccc1)Oc1cc(OC(C)=O)c2c(=O)c(-c3ccc(OC(C)=O)cc3)coc2c1 (some centres undefined)
pIC50: < 4.00

compound: COC(=O)[C@H](Cc1ccccc1)NP(=O)(Oc1ccccc1)Oc1ccc2c(=O)c(-c3ccc(O)cc3)coc2c1 (some centres undefined)
pIC50: 4.41

----------
# System: HepG2
# test_details: Antiproliferative activity against human HepG2 cells after 48 hrs by MTT assay
# Assay type: functional, cell-based
# test_settings: HepG2, 48 h

compound: COC(=O)[C@H](CC(C)C)NP(=O)(Oc1ccccc1)Oc1cc(OC(C)=O)c2c(=O)c(-c3ccc(OC(C)=O)cc3)coc2c1 (stereo not given in full)
target_or_test_system: HepG2
IC50: 54 µM
--
compound: O=c1cc(-c2ccc(O)cc2)oc2cc(O)cc(O)c12 [APIGENIN]
target_or_test_system: HepG2
IC50: 70.2 µM
--
compound: COC(=O)[C@H](CC(C)C)NP(=O)(Oc1ccccc1)Oc1cc(O)c2c(=O)cc(-c3ccccc3)oc2c1 (stereo not given in full)
target_or_test_system: HepG2
IC50: > 100 µM
--
compound: COC(=O)[C@H](CC(C)C)NP(=O)(Oc1ccccc1)Oc1cc(O)c2c(=O)c(-c3ccc(O)cc3)coc2c1 (stereo not given in full)
target_or_test_system: HepG2
IC50: 72.3 µM
--
compound: COC(=O)[C@H](CC(C)C)NP(=O)(Oc1ccccc1)Oc1cc(OC(C)=O)c2c(=O)cc(-c3ccc(OC(C)=O)c(OC(C)=O)c3)oc2c1 (stereo not given in full)
target_or_test_system: HepG2
IC50: 21 µM
--
compound: COC(=O)[C@H](Cc1ccccc1)NP(=O)(Oc1ccccc1)Oc1ccc2c(=O)c(-c3ccc(OC(C)=O)cc3)coc2c1 (stereo not given in full)
target_or_test_system: HepG2
IC50: 60.2 µM
--
compound: COC(=O)[C@H](CC(C)C)NP(=O)(Oc1ccccc1)Oc1ccc2c(=O)c(-c3ccc(OC(C)=O)cc3)coc2c1 (stereo not given in full)
target_or_test_system: HepG2
IC50: 60 µM
--
compound: COC(=O)[C@H](Cc1ccccc1)NP(=O)(Oc1ccccc1)Oc1cc(OC(C)=O)c2c(=O)c(-c3ccc(OC(C)=O)cc3)coc2c1 (stereo not given in full)
target_or_test_system: HepG2
IC50: 63.2 µM
--
compound: COC(=O)[C@H](Cc1ccccc1)NP(=O)(Oc1ccccc1)Oc1cc(O)c2c(=O)c(-c3ccc(O)cc3)coc2c1 (stereo not given in full)
target_or_test_system: HepG2
IC50: > 100 µM
--
compound: COC(=O)[C@@H](NP(=O)(Oc1ccccc1)Oc1cc(OC(C)=O)c2c(=O)cc(-c3ccc(OC(C)=O)cc3)oc2c1)C(C)C (stereo not given in full)
target_or_test_system: HepG2
IC50: 18.4 µM
--
compound: COC(=O)[C@@H](NP(=O)(Oc1ccccc1)Oc1cc(O)c2c(=O)cc(-c3ccccc3)oc2c1)C(C)C (stereo not given in full)
target_or_test_system: HepG2
IC50: 21.1 µM
--
compound: COC(=O)[C@H](Cc1ccccc1)NP(=O)(Oc1ccccc1)Oc1ccc2c(=O)c(-c3ccc(O)cc3)coc2c1 (stereo not given in full)
target_or_test_system: HepG2
IC50: 52.1 µM
--
compound: COC(=O)[C@H](C)NP(=O)(Oc1ccccc1)Oc1cc(O)c2c(=O)c(-c3ccc(O)cc3)coc2c1 (stereo not given in full)
target_or_test_system: HepG2
IC50: 57.2 µM
--
compound: COC(=O)[C@H](Cc1ccccc1)NP(=O)(Oc1ccccc1)Oc1cc(OC(C)=O)c2c(=O)cc(-c3ccc(OC(C)=O)c(OC(C)=O)c3)oc2c1 (stereo not given in full)
target_or_test_system: HepG2
IC50: 27.1 µM
--
compound: COC(=O)[C@H](Cc1ccccc1)NP(=O)(Oc1ccccc1)Oc1cc(O)c2c(=O)cc(-c3ccc(O)c(O)c3)oc2c1 (stereo not given in full)
target_or_test_system: HepG2
IC50: 15.7 µM

----------
# System: HepG2
# test_details: Antiproliferative activity against human HepG2 cells after 48 hrs by MTT assay
# Assay type: functional, cell-based
# test_settings: HepG2, 48 h
quantity: IC50

compound: COC(=O)CNP(=O)(Oc1ccccc1)Oc1cc(O)c2c(=O)cc(-c3ccc(O)cc3)oc2c1 (centres undefined)
quantity: IC50
value: 59.7 µM

compound: COC(=O)[C@H](CC(C)C)NP(=O)(Oc1ccccc1)Oc1ccc2c(=O)c(-c3ccc(O)cc3)coc2c1 (some centres undefined)
quantity: IC50
value: 66 µM

compound: COC(=O)CNP(=O)(Oc1ccccc1)Oc1cc(OC(C)=O)c2c(=O)cc(-c3ccc(OC(C)=O)c(OC(C)=O)c3)oc2c1 (centres undefined)
quantity: IC50
value: 26.4 µM

compound: COC(=O)CNP(=O)(Oc1ccccc1)Oc1ccc2c(=O)c(-c3ccc(OC(C)=O)cc3)coc2c1 (centres undefined)
quantity: IC50
value: > 100 µM

compound: COC(=O)[C@H](C)NP(=O)(Oc1ccccc1)Oc1cc(OC(C)=O)c2c(=O)c(-c3ccc(OC(C)=O)cc3)coc2c1 (some centres undefined)
quantity: IC50
value: 6.6 µM

compound: COC(=O)[C@H](C)NP(=O)(Oc1ccccc1)Oc1cc(OC(C)=O)c2c(=O)cc(-c3ccc(OC(C)=O)c(OC(C)=O)c3)oc2c1 (some centres undefined)
quantity: IC50
value: 27.3 µM

compound: COC(=O)[C@H](Cc1ccccc1)NP(=O)(Oc1ccccc1)Oc1cc(O)c2c(=O)cc(-c3ccccc3)oc2c1 (some centres undefined)
quantity: IC50
value: > 100 µM

compound: COC(=O)[C@H](CC(C)C)NP(=O)(Oc1ccccc1)Oc1cc(OC(C)=O)c2c(=O)cc(-c3ccc(OC(C)=O)cc3)oc2c1 (some centres undefined)
quantity: IC50
value: 22.1 µM

compound: COC(=O)CNP(=O)(Oc1ccccc1)Oc1cc(O)c2c(=O)cc(-c3ccc(O)c(O)c3)oc2c1 (centres undefined)
quantity: IC50
value: 47.7 µM

----------
Quick list: pIC50 per entry.
# test_details: Cytotoxicity against human LO2 cells after 48 hrs by MTT assay
# Type: cell-based
# test_settings: L02, 48 h
pIC50: −log10 of the molar value.
quantity: pIC50

compound: COC(=O)[C@H](CC(C)C)NP(=O)(Oc1ccccc1)Oc1cc(OC(C)=O)c2c(=O)cc(-c3ccc(OC(C)=O)cc3)oc2c1 (some centres undefined)
value: 4.22

compound: COC(=O)[C@H](C)NP(=O)(Oc1ccccc1)Oc1cc(OC(C)=O)c2c(=O)cc(-c3ccc(OC(C)=O)c(OC(C)=O)c3)oc2c1 (some centres undefined)
value: 4.29

compound: COC(=O)[C@H](CC(C)C)NP(=O)(Oc1ccccc1)Oc1cc(O)c2c(=O)c(-c3ccc(O)cc3)coc2c1 (some centres undefined)
value: 4.32

compound: COC(=O)CNP(=O)(Oc1ccccc1)Oc1cc(O)c2c(=O)cc(-c3ccc(O)cc3)oc2c1 (centres undefined)
value: 4.15

----------
# test_details: Cytotoxicity against human LO2 cells after 48 hrs by MTT assay
# Assay type: cell-based
# test_settings: L02, 48 h
pIC50: −log10 of the molar value.

compound: COC(=O)[C@H](CC(C)C)NP(=O)(Oc1ccccc1)Oc1cc(OC(C)=O)c2c(=O)cc(-c3ccc(OC(C)=O)c(OC(C)=O)c3)oc2c1 (some centres undefined)
pIC50: 4.42
--
compound: COC(=O)[C@@H](NP(=O)(Oc1ccccc1)Oc1cc(O)c2c(=O)cc(-c3ccc(O)c(O)c3)oc2c1)C(C)C (some centres undefined)
pIC50: 5.09
--
compound: COC(=O)[C@H](C)NP(=O)(Oc1ccccc1)Oc1ccc2c(=O)c(-c3ccc(O)cc3)coc2c1 (some centres undefined)
pIC50: 4.69
--
compound: COC(=O)[C@H](CC(C)C)NP(=O)(Oc1ccccc1)Oc1cc(OC(C)=O)c2c(=O)c(-c3ccc(OC(C)=O)cc3)coc2c1 (some centres undefined)
pIC50: 4.22

----------
Quick list: IC50 per entry.
# test_details: Cytotoxicity against human LO2 cells after 48 hrs by MTT assay
# Format: cell-based
# test_settings: L02, 48 h
quantity: IC50 (µM)

compound: COC(=O)CNP(=O)(Oc1ccccc1)Oc1cc(O)c2c(=O)cc(-c3ccc(O)c(O)c3)oc2c1 (stereo unspecified)
quantity: IC50
output_unit: µM
value_relation_sign: =
value: 47.7

compound: COC(=O)[C@H](Cc1ccccc1)NP(=O)(Oc1ccccc1)Oc1cc(O)c2c(=O)cc(-c3ccccc3)oc2c1 (stereo partly specified)
quantity: IC50
output_unit: µM
value_relation_sign: >
value: 100

compound: COC(=O)[C@H](C)NP(=O)(Oc1ccccc1)Oc1ccc2c(=O)c(-c3ccc(OC(C)=O)cc3)coc2c1 (stereo partly specified)
quantity: IC50
output_unit: µM
value_relation_sign: =
value: 24.3

compound: COC(=O)[C@H](CC(C)C)NP(=O)(Oc1ccccc1)Oc1cc(O)c2c(=O)cc(-c3ccc(O)c(O)c3)oc2c1 (stereo partly specified)
quantity: IC50
output_unit: µM
value_relation_sign: =
value: 34

compound: COC(=O)CNP(=O)(Oc1ccccc1)Oc1cc(O)c2c(=O)c(-c3ccc(O)cc3)coc2c1 (stereo unspecified)
quantity: IC50
output_unit: µM
value_relation_sign: =
value: 44.5

compound: COC(=O)[C@H](CC(C)C)NP(=O)(Oc1ccccc1)Oc1cc(O)c2c(=O)cc(-c3ccc(O)cc3)oc2c1 (stereo partly specified)
quantity: IC50
output_unit: µM
value_relation_sign: =
value: 52.8

compound: COC(=O)[C@H](Cc1ccccc1)NP(=O)(Oc1ccccc1)Oc1cc(OC(C)=O)c2c(=O)cc(-c3ccc(OC(C)=O)c(OC(C)=O)c3)oc2c1 (stereo partly specified)
quantity: IC50
output_unit: µM
value_relation_sign: =
value: 30.3

compound: COC(=O)CNP(=O)(Oc1ccccc1)Oc1ccc2c(=O)c(-c3ccc(O)cc3)coc2c1 (stereo unspecified)
quantity: IC50
output_unit: µM
value_relation_sign: >
value: 100

compound: COC(=O)[C@@H](NP(=O)(Oc1ccccc1)Oc1cc(O)c2c(=O)cc(-c3ccc(O)cc3)oc2c1)C(C)C (stereo partly specified)
quantity: IC50
output_unit: µM
value_relation_sign: =
value: 26

compound: COC(=O)CNP(=O)(Oc1ccccc1)Oc1ccc2c(=O)c(-c3ccc(OC(C)=O)cc3)coc2c1 (stereo unspecified)
quantity: IC50
output_unit: µM
value_relation_sign: >
value: 100

compound: O=c1cc(-c2ccc(O)cc2)oc2cc(O)cc(O)c12
quantity: IC50
output_unit: µM
value_relation_sign: >
value: 100

compound: COC(=O)[C@H](C)NP(=O)(Oc1ccccc1)Oc1cc(OC(C)=O)c2c(=O)c(-c3ccc(OC(C)=O)cc3)coc2c1 (stereo partly specified)
quantity: IC50
output_unit: µM
value_relation_sign: =
value: 11.9

compound: O=c1cc(-c2ccc(O)c(O)c2)oc2cc(O)cc(O)c12
quantity: IC50
output_unit: µM
value_relation_sign: >
value: 100

compound: COC(=O)[C@@H](NP(=O)(Oc1ccccc1)Oc1cc(OC(C)=O)c2c(=O)cc(-c3ccc(OC(C)=O)cc3)oc2c1)C(C)C (stereo partly specified)
quantity: IC50
output_unit: µM
value_relation_sign: =
value: 29.4

compound: COC(=O)[C@H](CC(C)C)NP(=O)(Oc1ccccc1)Oc1ccc2c(=O)c(-c3ccc(O)cc3)coc2c1 (stereo partly specified)
quantity: IC50
output_unit: µM
value_relation_sign: =
value: 47.7

compound: COC(=O)[C@H](Cc1ccccc1)NP(=O)(Oc1ccccc1)Oc1cc(OC(C)=O)c2c(=O)cc(-c3ccc(OC(C)=O)cc3)oc2c1 (stereo partly specified)
quantity: IC50
output_unit: µM
value_relation_sign: =
value: 45.9
